biological target: mPGES-1 (Homo sapiens (Human), UniProt O14684); test: A549 cell-based assay (PGE2 formation, IL-1β stimulated, 50% human serum); settings: A549 cells, IL-1β 5 ng/ml, read-out: mPGES-1 inhibitory effect in the cell assay, IC50
Sequence (O14684 whole entry): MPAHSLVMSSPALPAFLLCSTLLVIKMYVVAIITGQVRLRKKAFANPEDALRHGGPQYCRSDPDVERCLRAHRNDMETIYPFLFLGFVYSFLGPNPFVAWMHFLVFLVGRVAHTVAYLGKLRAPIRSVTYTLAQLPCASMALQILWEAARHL
measurement-label: IC50

// assay mPGES-1 (Homo sapiens (Human), UniProt O14684), entry Cn1c(Nc2c(Cl)ccc(CNC(=O)C(C)(C)C)c2Cl)nc2cc(C(=O)Nc3ccc(F)c(Cl)c3)c(OC3CCOC3)cc21 (stereo not shown) , IC50 value = < 1 nM

// assay mPGES-1 (Homo sapiens (Human), UniProt O14684), entry "COC(C)(C)C(=O)NCc1ccc(Cl)c(Nc2nc3cc(C(=O)Nc4ccc(F)c(Cl)c4)c(OCC(F)F)cc3n2C)c1Cl" , IC50 value = < 1 nM

// assay mPGES-1 (Homo sapiens (Human), UniProt O14684), entry "Cn1c(Nc2c(Cl)ccc(CNC(=O)C(C)(C)C)c2Cl)nc2cc(C(=O)Nc3cc(F)cc(Cl)c3)c(F)cc21" , IC50 value = < 1 nM

// assay mPGES-1 (Homo sapiens (Human), UniProt O14684), entry "Cn1c(Nc2c(Cl)ccc(CNC(=O)C(C)(C)C)c2Cl)nc2cc(C(=O)Nc3ccc(Cl)c(F)c3)c(F)cc21" , IC50 value = 2 nM

// assay mPGES-1 (Homo sapiens (Human), UniProt O14684), entry "Cn1c(Nc2c(Cl)ccc(CNC(=O)C(C)(C)C)c2F)nc2cc(C(=O)N[C@H]3CC[C@H](C(F)(F)F)CC3)c(OCC(F)F)cc21" , IC50 value = 2 nM

// assay mPGES-1 (Homo sapiens (Human), UniProt O14684), entry "Cn1c(Nc2c(Cl)ccc(CNC(=O)C3CCCC3)c2Cl)nc2cc(C(=O)Nc3ccc(F)c(Cl)c3)c(OCC(F)F)cc21" , IC50 value = < 1 nM

// assay mPGES-1 (Homo sapiens (Human), UniProt O14684), entry "Cn1ccnc1C(=O)NCc1ccc(Cl)c(Nc2nc3cc(C(=O)Nc4ccc(F)c(Cl)c4)c(OCC(F)F)cc3n2C)c1Cl" , IC50 value = 10 nM

// assay mPGES-1 (Homo sapiens (Human), UniProt O14684), entry "Cn1c(Nc2c(Cl)ccc(CNC(=O)C3CCC3)c2Cl)nc2cc(C(=O)NCC(F)(F)F)c(OCC(F)F)cc21" , IC50 value = 10 nM

// assay mPGES-1 (Homo sapiens (Human), UniProt O14684), entry "COCCOc1cc2c(cc1C(=O)Nc1ccc(F)c(Cl)c1)nc(Nc1c(Cl)ccc(CNC(=O)C(C)(C)C)c1Cl)n2C" , IC50 value = < 1 nM

// assay mPGES-1 (Homo sapiens (Human), UniProt O14684), entry "Cn1c(Nc2c(Cl)ccc(CNC(=O)N3CCC(F)(F)C3)c2Cl)nc2cc(C(=O)N[C@H]3CC[C@H](C(F)(F)F)CC3)c(OCC(F)F)cc21" , IC50 value = 50 nM
